Source: paper PMC5540273

test system: ZAK; conditions: concentration: 1 μM, replicates: in singlicate; n = 1;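 note: KINOMEscan kinase panel screen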
measured.attribute: %Inh (%)
Numbers only; they are read as %.

Exam item: For "Cn1c(=O)c(F)c(Nc2ccc(I)cc2F)c2c(=O)n(OC[C@H](O)CO)cnc21" , what is its reported %Inh?
Marked response: 19

Exam item: %Inh for Nc1nc(N)c2nc(-c3ccccc3)[nH]c2n1 [SKF-12778] ?
Marked response: 22

Exam item: Given the compound Cc1cc(Nc2nc(-c3cccc(C)n3)nc3ccccc23)ccn1 [GW872411] , what is its reported %Inh?
Marked response: 0

Exam item: Report %Inh for "COc1cc(OC)cc(-c2cc3cnc(N)nc3nc2NC(=O)NC(C)(C)C)c1" please.
Marked response: 15

Exam item: Value lookup for %Inh; key = CN(C)c1cc(-c2ccc3c(N)n[nH]c3c2)nc(N)n1 [GSK2219329]
Marked response: 92.5

Exam item: Need %Inh, item COc1cc2ncn(-c3cc(OCCCc4ccccc4)c(C(N)=O)s3)c2cc1OC [GSK205189]
Marked response: 0

Exam item: Which %Inh is reported for this compound? CCS(=O)c1ccc(-c2coc3ccc(-c4nnc(C)o4)cc23)cc1 (stereo not shown)
Marked response: 8

Exam item: Requested read-out: %Inh. Entry: OCCCNc1nccc(-c2c(-c3cccc(C(F)(F)F)c3)nn3cc(C(F)(F)F)ccc23)n1 [GW630813]
Marked response: 0

Exam item: %Inh for Nc1ncnc2c1ncn2-c1cccc(F)c1 [SKF-97560] ?
Marked response: 26

Exam item: Quick one: %Inh for COc1cc2ncn(-c3cc(OCc4ccc(S(C)(=O)=O)cc4)c(C(N)=O)s3)c2cc1OC [GW869979] ?
Marked response: 0

Exam item: Report %Inh for O=C(NCCNc1ccnc(Nc2ccc(F)cc2)n1)Nc1ccc2c(c1)OCO2 [GSK1379882] please.
Marked response: 100

Exam item: What value of measured %Inh is listed for "CCC(=O)c1c(-c2ccccc2)c2cc(Cl)ccc2c(=O)n1Cc1cc(S(C)(=O)=O)n(CC(N)=O)n1" ?
Marked response: 0

Exam item: Given the entry Cl.NS(=O)(=O)c1cccc(Nc2cc(-c3ccc(F)cc3)n[nH]2)c1 [GW824645] , report its measured %Inh.
Marked response: 0

Exam item: Would you kindly share the measured %Inh for CCn1c(-c2nonc2N)nc2ccccc21 [SB-693162/GW549034] ?
Marked response: 0

Exam item: Any idea what %Inh was measured for "COC(=O)c1c(-c2ccccc2)c2cc(Br)ccc2c(=O)n1Cc1ccc(S(C)(=O)=O)cc1" ?
Marked response: 32

Exam item: // lookup %Inh for O=C(NCc1cccs1)c1cc(C(=O)c2c(Cl)cccc2Cl)c[nH]1 [GW823670]
Marked response: 0

Exam item: # input compound: Cc1nnc(-c2ccc(C)c(-c3ccc(C(=O)O)cc3)c2)o1 [GW608005] ; wanted: its %Inh
Marked response: 0

Exam item: Recorded %Inh for O=C(Nc1ccc2c(c1)OCO2)NC1CCN(c2ccnc(NCc3ccc(F)cc3)n2)CC1 [GSK1379859] , please?
Marked response: 0

Exam item: State the recorded %Inh for this entry: "COC(=O)c1c(-c2ccccc2)c2cc(C)ccc2c(=O)n1Cc1ccccc1"
Marked response: 25

====

Assign %Inh to each entry below.
tested on: MYLK; conditions: concentration: 1 μM, replicates: in singlicate; n = 1
Answer format: numeric, % implied, no suffix.

Exam item: State the recorded %Inh for this entry: "COc1cccc(-n2cnc3c(N)ncnc32)c1"
Marked response: 31

Exam item: Item COc1ccc(Nc2nccc(N3CCC(NS(=O)(=O)c4ccc(NC(C)=O)cc4)C3)n2)cc1 (centres unmarked) has what recorded %Inh?
Marked response: 15

Exam item: So what does the record say about %Inh for "CCn1c(-c2nonc2N)nc2ccccc21" ?
Marked response: 48

Exam item: Given Cc1nnc(-c2ccc3ncn(-c4ccc(S(C)=O)cc4)c3c2)o1 (centres unmarked) , state its recorded %Inh.
Marked response: 0

Exam item: I am curious: what %Inh value has been reported for "Cc1cccc(-c2cc(-c3c[nH]nc3-c3ccccn3)ccn2)c1" ?
Marked response: 32

====

tested on: VPS34; construct: gene PIK3C3; settings: concentration: 1 μM, replicates: in singlicate; n = 1
measured.attribute: %Inh

Exam item: %Inh lookup needed for "CCCC(=O)Nc1n[nH]c2ncc(-c3cccc4ccccc34)cc12" , thanks.
Marked response: 0%

Exam item: Requested read-out: %Inh. Entry: "COc1cc2ncn(-c3cc(OCc4ccncc4Br)c(C(N)=O)s3)c2cc1OC"
Marked response: 58%

Exam item: Requested read-out: %Inh. Entry: "COc1cccc(C2=C(N(C)c3ccccc3)C(=O)NC2=O)c1"
Marked response: 0%

Exam item: Fill in the blank: the reported %Inh of "COc1cccc(-n2cnc3c(N)ncnc32)c1" is ____.
Marked response: 45%

Exam item: Which %Inh reading was recorded for the compound "COc1ccc(-c2cc3c(C)nc(N)nc3n([C@H]3CC[C@H](O)CC3)c2=O)cn1" ?
Marked response: 0%

Exam item: Need %Inh, item "Nc1ncnc2c1ncn2-c1cccc(F)c1"
Marked response: 4%

Exam item: I'd like to know its %Inh. The compound in question is "CN1C(=O)C(Nc2ccccc2)=C(c2ccccc2)C1=O"
Marked response: 30%

Exam item: Item under review: "Cl.c1ccc(Cn2cnc3cc(Nc4ncnc5ccccc45)ccc32)cc1" . Reported %Inh?
Marked response: 0%

Exam item: Endpoint output: %Inh of COc1ccc(CNC(=O)NC2CCN(c3ccnc(Nc4ccc(F)cc4)n3)C2)cc1 (stereo not drawn) . Value?
Marked response: 33%

====

Give measured %Inh for each item. Keep answers brief.
system: CDC2L5; construct: gene CDK13; details: concentration: 1 μM, replicates: in singlicate; n = 1
Numeric only. Scale: %

Exam item: Give the measured %Inh of "Cn1c(=O)c(F)c(Nc2ccc(I)cc2F)c2c(=O)n(OC[C@H](O)CO)cnc21" .
Marked response: 13

Exam item: Would you kindly share the measured %Inh for "CCC(=O)c1c(-c2ccccc2)c2cc(Cl)ccc2c(=O)n1Cc1cc(S(C)(=O)=O)n(CC(N)=O)n1" ?
Marked response: 0

Exam item: Please report the recorded %Inh for "Cc1cccc(-c2nc(Nc3ccc4c(cnn4C)c3)c3ccccc3n2)n1" .
Marked response: 0

Exam item: Give the measured %Inh of "Nc1ncnc2c1ncn2-c1ccc(Cl)cc1" .
Marked response: 0

Exam item: Quick check: %Inh of "FC(F)(F)c1ccc(-c2ncn(CCCN3CCOCC3)c2-c2ccncc2)cc1" ?
Marked response: 15

Exam item: For "COc1ccc(-c2cc3c(C)nc(N)nc3n([C@H]3CC[C@H](O)CC3)c2=O)cn1" , what is its reported %Inh?
Marked response: 0

Exam item: Quick one: %Inh for "COc1cc2nccc(Nc3ccc(OCc4ccc(NC(C)=O)cc4)cc3)c2cc1OC.Cl" ?
Marked response: 0

Exam item: Could you tell me which %Inh is on file for "COc1cc2nccc(Nc3cccc(Oc4ccccc4)c3)c2cc1OC.Cl" ?
Marked response: 0

Exam item: For "CC(C)(C)c1ccc(C(=O)Nc2cn3cc(-c4ccccc4)ccc3n2)cc1" , what is its reported %Inh?
Marked response: 0

====

tested on: CAMKK2; conditions: concentration: 1 μM, replicates: in singlicate; n = 1
For each record, write down the corresponding %Inh.
Report the figure in % without appending any unit label.

Exam item: Query the reported %Inh for CAMKK2; item: "Nc1ncnc2c1ncn2-c1cccc2ccccc12"
Marked response: 0

Exam item: %Inh of "OCCCNc1nccc(-c2c(-c3cccc(C(F)(F)F)c3)nn3cc(C(F)(F)F)ccc23)n1" on CAMKK2?
Marked response: 12

Exam item: Can you look up %Inh on CAMKK2 for "COc1ccc(-c2coc3ccc(-c4nnc(SCc5cccc(C#N)c5)o4)cc23)cc1" ?
Marked response: 0

Exam item: Test system CAMKK2; read-out %Inh; what value for "CC(C)(C)c1ccc(C(=O)Nc2cn3cc(-c4ccccc4)ccc3n2)cc1" ?
Marked response: 0

Exam item: Any idea what %Inh came out for "CN1C(=O)C(Nc2cc(Cl)c(O)c(Cl)c2)=C(c2ccc(Cl)cc2)C1=O" on CAMKK2?
Marked response: 0

Exam item: Param readout= %Inh; system= CAMKK2; entry= "COc1cc2ncn(-c3cc(OCc4ccc(S(C)(=O)=O)cc4)c(C(N)=O)s3)c2cc1OC" ; returns value.
Marked response: 0

Exam item: Tell me reported %Inh for "COc1ccc(-c2cc3c(C)nc(N)nc3n([C@H]3CC[C@H](O)CC3)c2=O)cn1" , tested with CAMKK2.
Marked response: 0

Exam item: Item: "CN(C)c1cc(-c2ccc3c(N)n[nH]c3c2)nc(N)n1" Test system: CAMKK2 Read-out: %Inh Value: ?
Marked response: 9

Exam item: Entry "CCc1nc(-c2cccc(C)c2)c(-c2ccncc2)s1" , system CAMKK2: what %Inh was measured?
Marked response: 0

Exam item: %Inh of "Cc1cccc(-c2nc(Nc3ccc4c(cnn4C)c3)c3ccccc3n2)n1" on CAMKK2?
Marked response: 0

Exam item: Form: Entry = "O=C(Nc1ccc2c(c1)OCO2)NC1CCN(c2ccnc(NCc3ccc(F)cc3)n2)CC1" | System = CAMKK2 | %Inh = ____
Marked response: 25

Exam item: Form: Entry = "CCn1c(-c2nonc2N)nc2ccccc21" | System = CAMKK2 | %Inh = ____
Marked response: 0

Exam item: Return %Inh measured with CAMKK2 given this compound: "COc1ccc(-n2cnc3c(N)ncnc32)cc1"
Marked response: 0

Exam item: Request: %Inh, test system CAMKK2, entry "Nc1nc(-c2ccccc2F)c(-c2ccnc3ccccc23)s1"
Marked response: 4

Exam item: Tell me reported %Inh for "Cc1ccc(Oc2ccc(Nc3ncnc4cc[nH]c34)cc2C)cn1" , tested with CAMKK2.
Marked response: 5

Exam item: Enter reported %Inh observed with CAMKK2 for "CCC(=O)c1c(-c2ccccc2)c2cc(Cl)ccc2c(=O)n1Cc1cc(S(C)(=O)=O)n(CCC(C)(C)O)n1"
Marked response: 28

Exam item: Quick check: %Inh on CAMKK2, item "Cl.NS(=O)(=O)c1cccc(Nc2cc(-c3ccc(F)cc3)n[nH]2)c1" ?
Marked response: 0

Exam item: Short answer please: %Inh, CAMKK2, entry "Nc1nc(N)c2nc(-c3ccccc3)[nH]c2n1"
Marked response: 0

Exam item: Request body: readout %Inh, system CAMKK2, query "CCCNC(=O)Nc1ccc(Oc2ncnc3ccn(C)c23)cc1" . Return the value.
Marked response: 9
